Source listed as PubChem BioAssay (NCI).

- Tested on: EKVX NSCLC
- ASSAY TEXT: NCI tumour cell line growth inhibition, 48 h
TGI: recorded values
Your answer should be a plain number; it is taken to be in µM.

Check out these entries, answers already filled in.
C/C=C(\C)C(=O)O[C@H]1C=CC(=O)O[C@H]1CNC(=O)[C@H](C)O | 67.4
CC(C)(O)C1OCC(C2CCC3(C)C4=CCC5C(C)(C)C(O)CCC5(C)C4CCC23C)CC1O (stereo not drawn) | 32.3
CCN(CC)CCS(=O)c1c2cc(OC)ccc2nc2ccc(OC)cc12 (stereo not drawn) | 30.8
CC(=O)O[C@H]1C(=O)[C@@]2(C)[C@H]([C@H](OC(=O)C3CCCCC3)[C@]3(O)C[C@H](OC(=O)[C@H](O)[C@@H](NC(=O)C4CCCCC4)C4CCCCC4)C(C)=C1C3(C)C)[C@]1(OC(C)=O)CO[C@@H]1C[C@@H]2O | 25

Exam item: Look up TGI for this compound: "Cc1cc2c(F)c(Oc3ncnn4cc(OC[C@@H](C)OC(=O)[C@H](C)N)c(C)c34)ccc2[nH]1"
Marked response: 26.9

---

- System: OVCAR-3 ovarian
- ASSAY TEXT: NCI tumour cell line growth inhibition, 48 h
OBSERVED PROPERTY: TGI (µM)
Your answer should be a plain number; it is taken to be in µM.

Check out these entries, answers already filled in.
Cc1cc(Cl)ccc1N=NC(=O)NNc1ccc(Cl)cc1C | 31
CN(C)Cc1ccc(C(=O)Nc2ccc3ncnc(Nc4ccc(Oc5cccc(F)c5)c(Cl)c4)c3c2)cc1 | 2.92

Attention now shifts to the item below.
Exam item: Look up TGI for this compound: CN(c1ccccc1)C(c1ccccc1)C(O)c1ccccc1 (centres undefined)
Marked response: 32

---

- Test system: BT-549 breast
- ASSAY TEXT: NCI tumour cell line growth inhibition, 48 h
OBSERVED PROPERTY: TGI

Check out these entries, answers already filled in.
Cc1ccc2c(N)c(C(=O)N[C@H]3CCc4cc(N5CC6CCC(C5)N6)ccc4C3)sc2n1 | 3.06 µM
O=S(=O)(c1ccc(I)cc1)N(c1ccccc1)S(=O)(=O)C(F)(F)C(F)(F)C(F)(F)C(F)(F)F | > 100 µM

Exam item: Look up TGI for this molecule: CCCCCCCCCCCCCCCCP(=O)(O)OP(=O)(O)OCC1OC(n2cnc3c(N)ncnc32)C(O)C1O (stereo not drawn)
Marked response: > 100 µM

---

- Tested on: EKVX NSCLC
- ASSAY TEXT: NCI tumour cell line growth inhibition, 48 h
OBSERVED PROPERTY: TGI

Exam item: Look up TGI for this compound: "c1ccc2sc(C3(N4CCCCC4)CCCC3)cc2c1"
Marked response: 22 µM

---

- Tested on: M14 melanoma
- ASSAY TEXT: NCI tumour cell line growth inhibition, 48 h
OBSERVED PROPERTY: GI50

Exam item: Lab note: need GI50 for "O=C1C=Cc2ccccc2/C1=C/c1[nH]c(=O)[nH]c1O" on M14 melanoma, anyone have it?
Marked response: 4.42 µM

Exam item: Can you check O=C1OC(=O)C2C1C1(c3ccccc3)C(c3ccccc3)=C(c3ccccc3)C2(c2ccccc2)S1=O (stereo unspecified) next?
Marked response: > 100 µM

Exam item: Can you check O=C(C(Br)Br)C(Br)C(Br)c1ccccc1 (stereo unspecified) next?
Marked response: 2.5 µM

Exam item: Can you check "CN(C)CCCNC(=O)c1cc(NC(=O)c2cc(NC(=O)c3cc(NC(=O)CCc4c[nH]c5ccccc45)cn3C)cn2C)cn1C" next?
Marked response: > 100 µM

Exam item: Can you check "COc1cc(/C=C/C(=O)c2ccc(Cl)cc2)ccc1OS(=O)(=O)c1ccc(C)cc1" next?
Marked response: 6.35 µM

Exam item: Can you check "Cc1[nH]c(/C=C2\C(=O)Nc3ccc(F)cc32)c(C)c1C(=O)NC[C@H](O)CN1CCOCC1" next?
Marked response: 0.943 µM
